Test system: BRCA2
protocolText: 3' UTR reporter interaction score (median-centred robust z-score of log2 firefly/Renilla activity); higher = less repression of the 3' UTR reporter
details: HEK293T; 48 h
Kindly return Y if reported 3' UTR reporter interaction score is no lower than -0.1; return N if it is lower.

sequencetext=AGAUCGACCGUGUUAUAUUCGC measuredon=BRCA2 classname=Y
sequencetext=AAGCAGCUGCCUCUGAGGC measuredon=BRCA2 classname=N
sequencetext=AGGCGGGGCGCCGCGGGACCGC measuredon=BRCA2 classname=N
sequencetext=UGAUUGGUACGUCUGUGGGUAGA measuredon=BRCA2 classname=N
sequencetext=UAGUGCAAUAUUGCUUAUAGGGUUU measuredon=BRCA2 classname=N
sequencetext=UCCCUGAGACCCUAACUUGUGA measuredon=BRCA2 classname=Y
sequencetext=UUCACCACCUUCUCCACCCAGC measuredon=BRCA2 classname=N
sequencetext=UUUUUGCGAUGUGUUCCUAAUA measuredon=BRCA2 classname=Y
sequencetext=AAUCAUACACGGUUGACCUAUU measuredon=BRCA2 classname=N
sequencetext=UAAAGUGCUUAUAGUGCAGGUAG measuredon=BRCA2 classname=Y
